test: yeast display, Sf9 membrane polyspecificity reagent, FACS + sequencing; frameworks hold sequencing errors

>  <BIOSEQUENCE>
QVQLVESGGGLVQAGGSLRLSCAASGFTFRYYAMGWYRQAPGKEREWVAGISSRGGSTYYADSVKGRFTISRDNAKNTVYLQMNSLKPEDSAVYYCATERFLLGLGYDYWGQGTQVTVSS

>  <polyreactivity (PSR sort gate)>
high polyreactivity

$$$$
>  <BIOSEQUENCE>
QVQLVESGGGLVQAGGSLRLSCAASGSTFAFYAMGWYRQAPGKERELVAAISFSGGSTYYADSVKGRFTISRDNAKNTVYLQMNSLKPEDTAVYYCNARYPNTRKYDYWGQGTQVTVSS

>  <polyreactivity (PSR sort gate)>
high polyreactivity

$$$$

---

assay: yeast display, Sf9 membrane polyspecificity reagent, FACS + sequencing; frameworks hold sequencing errors
TEST_READOUT: polyreactivity (PSR sort gate)

>  <BIOSEQUENCE>
QVQLEESGGGLVQAGGSLRLSCAASGRILRGYVMGWYRQAPGKERELVATITGRGGSTYYADSVKGRFTISRDNAKNTVYLQMNSLKPEDTAVYYCNKDGYPYFGRSEYWGQGTQVTVSS

>  <TEST_READOUT>
polyreactivity (PSR sort gate)

>  <REPORTED_RESULT>
low polyreactivity

$$$$
>  <BIOSEQUENCE>
QVQLVESGGGLVQAGGSLRLSCAASGSTFGVYALGWYIPAPGKERELVDRITWSGGSTYYADSVKGRFTISRDNAKNTVYLQMNSLKPEDTAVFYCAARAWWDWYSPLWYYYWGQGTQVTVSS

>  <TEST_READOUT>
polyreactivity (PSR sort gate)

>  <REPORTED_RESULT>
high polyreactivity

$$$$
>  <BIOSEQUENCE>
QVQLVESGGGLVQAGGSLRLSCAASGSTFDGYTMGWYRQAPGKERELVAAISWRGTSTYYADSVKGRFTISRYIAKNTVYLQMNSLKPEDTAVYYCAADAYSGYDYWGQGTQVTVSS

>  <TEST_READOUT>
polyreactivity (PSR sort gate)

>  <REPORTED_RESULT>
low polyreactivity

$$$$
>  <BIOSEQUENCE>
QVQLVESGGGLVQAGGSLRLSCAASGGTFFTNAMGWYRQAPGKERELVAAISRGGSSTYYADSVKGRFTISRDNAKNTVYLQMTSLKPEDTAVYYCNKAYHRRDSEFGYWGQGTQVTVSS

>  <TEST_READOUT>
polyreactivity (PSR sort gate)

>  <REPORTED_RESULT>
high polyreactivity

$$$$
>  <BIOSEQUENCE>
QVQLVESGGGLVQAGGSLRLSCAASGRIFQYYVMGRYRQAPGKEREWVAAMTSGGGTKYADSVKGRFTISRDNEKNTVYLQMNSLKPEDTAVYYCAAAWFDQYSRYDYWGQGSQVTVSS

>  <TEST_READOUT>
polyreactivity (PSR sort gate)

>  <REPORTED_RESULT>
low polyreactivity

$$$$
>  <BIOSEQUENCE>
QVQLVESGGGLVQAGGSLRLSCAASGGTFNANGMGWYRQAPGKERELVAAISQRAGRTYYADSVKGRFTISRDNAKNTVYLQMNSLKPEDTAVFYCAKRPTDRRFGSGYWGQGTQVTVSS

>  <TEST_READOUT>
polyreactivity (PSR sort gate)

>  <REPORTED_RESULT>
high polyreactivity

$$$$
>  <BIOSEQUENCE>
QVQLVESGGGLVQAGGSLRLSCAASGSTLASYAMGWYKQAPGKERELVAAISRGGGSTFYADSVKGRFTISRDNAKNTVYLQMNSLKPEDTAVYYCAAFGRYYYIYDYWGQGTQVTVSS

>  <TEST_READOUT>
polyreactivity (PSR sort gate)

>  <REPORTED_RESULT>
high polyreactivity

$$$$
>  <BIOSEQUENCE>
QVKLVESGGGLVQAGGSLRLSCGASGSTFGAYAMGWYRQAPGKERELVAVINSDGSTNYADSVKGRFTISRDNAKNTVYLQMNSMKPEDTAVYYCAKERTSRGGVPRMNYWGQGTQVTVSS

>  <TEST_READOUT>
polyreactivity (PSR sort gate)

>  <REPORTED_RESULT>
low polyreactivity

$$$$
>  <BIOSEQUENCE>
QVQLQESGGGLVQAGGSLRPLCAAGGTIFVSVNMRLYRHAPGEEREFVASITQGATTNYADSLIGRFTISRDNAKNTVYLLMNCQKPEDTEVYYCAVHESGGITFTYWGQGTQVTVSS

>  <TEST_READOUT>
polyreactivity (PSR sort gate)

>  <REPORTED_RESULT>
high polyreactivity

$$$$
>  <BIOSEQUENCE>
QVQLEESGGGLVQAGGSLRLSCAASGSIFDYYAMGWYRQAPGTERELVATITSGVSTYYADSVKGRFTISRDNAKNTVYLQMNSLKPEETAVYYCARDYAKSQDVYKYDYWGQGTQVTVSS

>  <TEST_READOUT>
polyreactivity (PSR sort gate)

>  <REPORTED_RESULT>
low polyreactivity

$$$$
>  <BIOSEQUENCE>
QVQLVESGGGLVQAGGSLRLSCAASGSTFWSYTMGWYRQAPGKEREWVAAISRSGGSTYYADSVKGRFTISRDNAKNTVYLQLNSLKPEDTAVYYCAAADRYGSRYYYWGQGTQVTVSS

>  <TEST_READOUT>
polyreactivity (PSR sort gate)

>  <REPORTED_RESULT>
high polyreactivity

$$$$

---

assay: yeast display, Sf9 membrane polyspecificity reagent, FACS + sequencing; frameworks hold sequencing errors

>  <BIOSEQUENCE>
QVQLVESGGGLVQAGGSLRLSCAATGRTFYPYVMGWYRQAAGKERDLVASITDSGGNTYYADSVKGRFTISRDHAKNTVYLQMNSLKPEDTAVYYCNASFYYPSRRGTFQYNYWGHGTQVTVSS

>  <polyreactivity (PSR sort gate)>
low polyreactivity

$$$$
>  <BIOSEQUENCE>
QVQLVESGGGLVQAGGSLRLSCAASGFTFAYYAMGWYRQAPGTERELVAAITYSGGSTYYADSVKGRFTISRDNAKNTVYLQMNSLKPEDTAVYYCNAYDRRYYYGRWYGEFDYWGQGTQVTVSS

>  <polyreactivity (PSR sort gate)>
low polyreactivity

$$$$
>  <BIOSEQUENCE>
QVQLVESAGGLVQAGGSLRLSFAASGRISGRYAMRWYRQAPGKEREVVAAITSRGGRTYYADSVKGRFTISRDNAKNTVYLQMNSLKPEDTAVYYCAKDAGSRTVREFGYWGQGTHVTVSS

>  <polyreactivity (PSR sort gate)>
high polyreactivity

$$$$
>  <BIOSEQUENCE>
QVQLVESGGGLVQAGGSLRLSCAASGNIFPAYVMGGYRQAPGKDRELVAAITDSDGSTFYADSVKGRFTISRDNAKNTVYLQMNSLKAEDTAVYYCAAYSYRQGWGFGYWGQGTQVTVSS

>  <polyreactivity (PSR sort gate)>
low polyreactivity

$$$$
>  <BIOSEQUENCE>
QVQLVESGGGLVQAGGSLRLSCAASGSILKGYTMGWYRQAPGKERELVAAITQTDNSTNYADSVKGRFTISRDNAKNTVYLQMNSLKPEDTAVYYCAASQLEFRRAFYYWGQGTQVTVSS

>  <polyreactivity (PSR sort gate)>
low polyreactivity

$$$$
>  <BIOSEQUENCE>
QVQLEESGGGLVQAGGSLRLSCAASGLIFWAYAMGWYRQAPGKDTELVAAINWRGGSTYYADSVKGRFTISRDNAKNTVYLQMNSLKPEDTAVYFCAGDSSYDEYDYWGQGTQVTVSS

>  <polyreactivity (PSR sort gate)>
low polyreactivity

$$$$
>  <BIOSEQUENCE>
QVQLVESGGGLVQAGGSLRLSCAASGRIFEYYAMGWYRQAPGKERELVAAINTGGNTYYADSVKGRFTLSRDNAKNTVYLQMNSLKPEDTAVYYCATYPIWYCGYLSGTDYDYWGQGTQVTVSS

>  <polyreactivity (PSR sort gate)>
low polyreactivity

$$$$
>  <BIOSEQUENCE>
QVQLVESGGGLVQAGGSLRLSCAASGSTFTSYAMGWYRQAPRKERELVAAINYSGGSTYYADSVKGRFTISRDNAKNTVYLQMNSLKPEDTAVYYCAADGYIRQYVTYYYWGQGTQVTVSS

>  <polyreactivity (PSR sort gate)>
low polyreactivity

$$$$
>  <BIOSEQUENCE>
QVQLVESGGGLVQAGGSLRLSCAASGRIFNLYDMGWYRQAPGKERELVAAIRIGDRTYYADSVKGRFTISRDNEKNTVYLQMNSLKQEDTAVYYCNREYLSNRDKRFFYWGQGTQVTVSS

>  <polyreactivity (PSR sort gate)>
low polyreactivity

$$$$
>  <BIOSEQUENCE>
QVQLVESGAGLVQAGGSLRLSCAASGSTFDSYVMGWYRQAPGKERDLVAAISRRGGSTYYADSVKGRFTISRDNAKNSVYLQMNSLKPEDTAVYYCARTVGYRTLLESDSWGQGTQVTVSS

>  <polyreactivity (PSR sort gate)>
high polyreactivity

$$$$
>  <BIOSEQUENCE>
QVQLVESGGGLVQAGGSLRLSCAASGSIFPPNAMAWYRQAPGKEREFVAAITESGGSTRYADSVKGRFTISRDNAKNTVYLQMNSLKPEDTAVYYCAARSYRYSTHGTYRYYYWGQGTQVTVSS

>  <polyreactivity (PSR sort gate)>
high polyreactivity

$$$$
